Reference source: ChEMBL document CHEMBL3792365

Assay: Growth inhibition of human UACC62 cells after 48 hrs by sulforhodamine B assay
Type: functional
Details: UACC-62, 48 h
Reported GI50 values for the following compounds.
ASSAY_ENDPOINT: GI50

>>> df
                                smiles_code   result
0  COc1ccc(/C=C(\C#N)c2ccc3c(c2)OCO3)c(OC)c1  2.32 µM
1  COc1ccc(/C(C#N)=C/c2ccc3c(c2)OCCO3)cc1OC  1.04 µM
2    N#C/C(=C\c1cc2ccccc2s1)c1ccc2c(c1)OCO2  0.06 µM
3     COc1ccc(/C=C(\C#N)c2ccc3c(c2)OCO3)cc1  0.59 µM
4  COc1ccc(/C=C(\C#N)c2ccc3c(c2)OCO3)c2ccccc12  1.51 µM
5     COc1ccc(/C=C/c2cc(OC)c(OC)c(OC)c2)cc1  2.37 µM
6   N#C/C(=C\c1cccc2ccccc12)c1ccc2c(c1)OCO2  2.63 µM
7  COc1cc(/C(C#N)=C/c2ccc3c(c2)OCCO3)cc(OC)c1OC  0.03 µM
8    COc1ccc(/C(C#N)=C/c2ccc3c(c2)OCCO3)cc1  8.68 µM
